# test.system: T1, Anti-CD28 Fab (SEQ ID NOs: 696, 697)
# T1 construct: Biotinylated and captured on neutravidin coated plates in the phage ELISA
# T1 sequence (VH, as listed by the source, chain 1 of 2): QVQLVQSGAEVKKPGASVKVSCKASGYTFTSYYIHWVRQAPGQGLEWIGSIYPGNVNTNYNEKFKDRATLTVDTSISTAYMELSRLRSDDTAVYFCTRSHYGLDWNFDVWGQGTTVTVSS
# T1 sequence (VL, as listed by the source, chain 2 of 2): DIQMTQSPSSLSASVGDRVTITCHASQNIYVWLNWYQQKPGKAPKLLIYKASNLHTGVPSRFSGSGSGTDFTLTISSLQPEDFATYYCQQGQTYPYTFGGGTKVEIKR
# assay.overview: phage binding ELISA; biotinylated anti-CD28 Fab on neutravidin plate, bound phage detected with anti-M13-HRP;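 note: clonal phage tested as crude supernatants, given a short incubation in the Fab-captured wells before bound phage were read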
observed.property: Anti-CD28 Fab (SEQ ID NOs: 696, 697) signal

// solved cases for Anti-CD28 Fab (SEQ ID NOs: 696, 697) signal follow
binder	reported.measurement
QCAAGAMWTWPACF (tested as crude phage supernatant) [Phage-1537]	1.54
TCSAVFSYTWSNCF (tested as crude phage supernatant) [Phage-1536]	1.54
TCEAVFIYSWPFCL (tested as crude phage supernatant) [Phage-1543]	1.52
SCSAGAMYPWPMCL (tested as crude phage supernatant) [Phage-1540]	1.53
LCAEGADYPWPMCL (tested as crude phage supernatant) [Phage-1545]	1.51

Item TCSAGATYVWPDCF (tested as crude phage supernatant) [Phage-1542] has what recorded Anti-CD28 Fab (SEQ ID NOs: 696, 697) signal?
1.52

Item TCAAGAMWNWPQCY (tested as crude phage supernatant) [Phage-1539] has what recorded Anti-CD28 Fab (SEQ ID NOs: 696, 697) signal?
1.54
